# SYSTEM UNDER TEST: sLeX
# ASSAY NAME: BIAcore measurement of binding capacity of peptides on sLeX-BSA fixed CM5 chip
# CONDITIONS USED: BIAcore, sLeX-BSA fixed on CM5 chip; read-out: Kp against sLeX
REPORTED METRIC: Kd (mM)
The figure you give is taken to be in mM; do not add the unit.

In plain terms, AHWIPRYSSPAT [monomer] has a documented Kd of 25.4
